molecular target: SIK2 (Homo sapiens, UniProt Q9H0K1); construct: purchased ThermoFisher Scientific PV4792; test: ADP-Glo kinase assay, SIK2; format: biochemical
Sequence (Q9H0K1 whole entry): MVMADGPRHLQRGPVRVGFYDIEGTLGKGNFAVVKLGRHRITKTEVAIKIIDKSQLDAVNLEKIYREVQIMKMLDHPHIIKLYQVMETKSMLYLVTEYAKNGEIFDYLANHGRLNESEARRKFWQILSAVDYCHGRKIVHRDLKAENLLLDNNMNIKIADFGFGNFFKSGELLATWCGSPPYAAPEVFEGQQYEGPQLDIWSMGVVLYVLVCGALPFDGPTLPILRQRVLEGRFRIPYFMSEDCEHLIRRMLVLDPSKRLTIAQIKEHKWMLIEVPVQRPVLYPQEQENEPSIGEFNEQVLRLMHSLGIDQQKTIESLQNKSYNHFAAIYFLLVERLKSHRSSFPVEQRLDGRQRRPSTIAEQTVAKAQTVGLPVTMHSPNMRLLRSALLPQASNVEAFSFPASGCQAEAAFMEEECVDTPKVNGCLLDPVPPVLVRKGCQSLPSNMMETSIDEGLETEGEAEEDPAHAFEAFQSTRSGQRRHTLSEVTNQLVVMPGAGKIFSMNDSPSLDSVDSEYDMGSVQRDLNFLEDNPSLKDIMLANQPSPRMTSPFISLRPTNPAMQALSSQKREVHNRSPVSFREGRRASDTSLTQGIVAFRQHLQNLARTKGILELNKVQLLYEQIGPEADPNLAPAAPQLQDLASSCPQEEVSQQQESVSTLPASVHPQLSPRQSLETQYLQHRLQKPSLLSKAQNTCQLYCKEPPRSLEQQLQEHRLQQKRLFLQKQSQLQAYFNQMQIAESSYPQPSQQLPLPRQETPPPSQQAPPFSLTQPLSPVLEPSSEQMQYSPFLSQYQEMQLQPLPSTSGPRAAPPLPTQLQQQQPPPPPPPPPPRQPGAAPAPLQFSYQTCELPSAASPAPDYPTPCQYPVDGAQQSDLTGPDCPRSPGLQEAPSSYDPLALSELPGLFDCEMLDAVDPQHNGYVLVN
assay endpoint: IC50

COc1cc(-c2cnc3cc(C(F)(F)CO)ccn23)cc(OC(F)F)c1C(=O)NC1CC1 100 to 500 nM
COc1cc(-c2cnc3cc(C(C)(C)O)ccn23)cc(OC)c1C(=O)NCC(F)(F)F > 500 nM
COc1cc(-c2cnn3cc(C(C)(C)COCC(=O)N(C)C)ccc23)cc(OC(F)F)c1C(=O)N[C@@H]1C[C@@H]1F > 500 nM

Respectfully, I request IC50 for each entry included below.
1. COc1cc(-c2cnc3cc(C4CN(C(C)=O)C4)ccn23)cc(OC(F)F)c1C(=O)NC1CC1
2. COc1cc(-c2cnn3cc(C4(C(=O)N5CCOCC5)CCC4)ccc23)cc(OC(F)F)c1C(=O)N[C@@H]1C[C@@H]1F
3. COc1cc(-c2cnc3cc(C(C)(C)C#N)ccn23)cc(OC(F)F)c1C(=O)NC1CC1
4. COc1cc(-c2cnn3cc(C4COC4)ccc23)cc(OC(F)F)c1C(=O)N[C@@H]1C[C@@H]1F
5. COc1cc(-c2cnc3cc(C4CCC4)c(F)cn23)cc(OC(F)F)c1C(=O)NC1CC1

Output:
["10 to 100 nM", "> 500 nM", "> 500 nM", "10 to 100 nM", "10 to 100 nM"]

* * *

molecular target: SIK2 (Homo sapiens, UniProt Q9H0K1); construct: purchased ThermoFisher Scientific PV4792; assay: ADP-Glo kinase assay, SIK2; type: biochemical; details: ADP-Glo; AMARA 45 μM; 5 μM ATP; 120 min; average IC50
pIC50: −log10 of the molar value.
assay endpoint: pIC50

molecule	assay endpoint	reported result
CC[C@](C)(O)c1ccn2c(-c3cc(OC)c(C(=O)NC4CC4)c(OC(F)F)c3)cnc2c1 (single isomer, unassigned) [Cpd 165]	pIC50	< 6.30
COc1cc(-c2cnc3cc([C@@](C)(C#N)CO)ccn23)cc(OC(F)F)c1C(=O)NC1CC1 (single isomer, unassigned) [Cpd 190]	pIC50	< 6.30
COc1cc(-c2cnc3cc([C@@](C)(O)C4CC4)ccn23)cc(OC(F)F)c1C(=O)NC1CC1 (single isomer, unassigned) [Cpd 163]	pIC50	< 6.30

Input: Reported pIC50 for COc1cc(-c2cnn3cc(C4COCCO4)ccc23)cc(OC(F)F)c1C(=O)N[C@@H]1C[C@@H]1F (stereo partly shown) [Cpd 240] : what is it?
Output: 7.00 to 8.00

* * *

Biological target: SIK2 (Homo sapiens, UniProt Q9H0K1)
Construct: purchased ThermoFisher Scientific PV4792
Assay: ADP-Glo kinase assay, SIK2
Assay type: biochemical
Procedure: The ADP-Glo™ kinase assay is a luminescent technology assay which measures the ADP formed from a kinase reaction. […] In a second step the kinase reactions are terminated and all the remaining ATP is depleted. In a final step the ADP is converted into ATP and this newly synthesized ATP is measured by using a luciferase/luciferin reaction. The generated light is measured using an Envision plate reader, wherein the luminescent signal obtained positively correlates with the kinase activity. […]
What IC50 was measured for each of the following?

compound	target desc	IC50
COc1cc(-c2cnn3cc(C4(NCC#N)CCC4)ccc23)cc(OC(F)F)c1C(=O)N[C@@H]1C[C@@H]1F [Cpd 270]	SIK2 (Homo sapiens, UniProt Q9H0K1)	> 500 nM
COc1cc(-c2cnc3cc(C(C)O)ccn23)cc(OC)c1C(=O)NCC(F)(F)F (centres unmarked) [Cpd 54]	SIK2 (Homo sapiens, UniProt Q9H0K1)	> 500 nM
COc1cc(-c2cnc3cc(C4CCNCC4)ccn23)cc(OC(F)F)c1C(=O)NC1CC1 [Cpd 66]	SIK2 (Homo sapiens, UniProt Q9H0K1)	10 to 100 nM
COc1cc(-c2cnc3cc(C4CCCN4C(=O)OC(C)(C)C)ccn23)cc(OC(F)F)c1C(=O)NC1CC1 (centres unmarked) [Cpd 180]	SIK2 (Homo sapiens, UniProt Q9H0K1)	100 to 500 nM
COc1cc(-c2cnc3cc(C(C)(C)C#N)ccn23)cc2c1C(=O)NC2 [Cpd 111]	SIK2 (Homo sapiens, UniProt Q9H0K1)	> 500 nM

Respectfully, I request IC50 for each entry included below.
1. COc1cc(-c2cnc3cc(C(C)(C)C#N)ccn23)cc(OC(F)F)c1C(=O)NC1(C(C)C)CC1 [Cpd 80]
2. COc1cc(-c2cnc3cc(C(C)(C)C#N)ccn23)cc(OC)c1C(=O)NCC(F)(F)F [Cpd 17]
3. COc1cc(-c2cnc3cc(C(C)(C)OC)ncn23)cc(OC(F)F)c1C(=O)NC1CC1 [Cpd 118]

Output:
1: > 500 nM; 2: > 500 nM; 3: > 500 nM

* * *

target: SIK3 (Homo sapiens, UniProt Q9Y2K2); construct: purchased SignalChem S12-11G-100; assay: ADP-Glo kinase assay, SIK3; format: biochemical
Sequence (Q9Y2K2 59-365 limits assumed): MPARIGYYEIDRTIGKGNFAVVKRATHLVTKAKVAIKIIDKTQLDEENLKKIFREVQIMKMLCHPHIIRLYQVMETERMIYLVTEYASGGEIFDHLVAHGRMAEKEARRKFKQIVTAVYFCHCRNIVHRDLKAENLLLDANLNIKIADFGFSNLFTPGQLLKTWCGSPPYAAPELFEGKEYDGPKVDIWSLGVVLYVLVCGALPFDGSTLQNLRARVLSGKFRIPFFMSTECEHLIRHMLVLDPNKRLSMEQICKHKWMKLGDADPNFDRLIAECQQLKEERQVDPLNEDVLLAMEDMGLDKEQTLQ
What IC50 was measured for each of the following?

compound	IC50
COc1cc(-c2cnc3cc(C4COCCN4C)ccn23)cc(OC(F)F)c1C(=O)NC1CC1 (centres unmarked)	10 to 100 nM
COc1cc(-c2cnc3cc(C(C)N4CCCCC4)ccn23)cc(OC(F)F)c1C(=O)NC1CC1 (centres unmarked)	10 to 100 nM
COc1cc(-c2cnc3cc(C4(C#N)CCOCC4)ccn23)cc(OC)c1C(=O)NCC(F)(F)F	0.01 to 10 nM

Respectfully, I request IC50 for each entry included below.
1. COc1cc(-c2cnc3cc(C4CCOCC4)ccn23)cc(OC)c1C(=O)NCC(F)(F)F
2. COc1cc(-c2cnc3cc(C(C)(C)C#N)ccn23)cc(OC(F)F)c1C(=O)N1CC(N)C1
3. COc1cc(-n2cnc3cc(C(C)(C)C#N)ccc32)cc(OC)c1C(=O)NC1CC1
4. COc1cc(-c2cnc3cc(C4CCCN4C(C)=O)ccn23)cc(OC(F)F)c1C(=O)NC1CC1 (centres unmarked)
5. COCCCNC(=O)c1c(OC)cc(-c2cnc3cc(C(C)(C)C#N)ccn23)cc1OC(F)F

Output:
1. 10 to 100 nM
2. 10 to 100 nM
3. 100 to 500 nM
4. 10 to 100 nM
5. 100 to 500 nM

* * *

What IC50 was measured for each of the following?
Target: SIK2 (Homo sapiens)
Construct: purchased ThermoFisher Scientific PV4792
Assay: ADP-Glo kinase assay, SIK2
Format: biochemical
Experimental: The ADP-Glo™ kinase assay is a luminescent technology assay which measures the ADP formed from a kinase reaction. […] In a second step the kinase reactions are terminated and all the remaining ATP is depleted. In a final step the ADP is converted into ATP and this newly synthesized ATP is measured by using a luciferase/luciferin reaction. The generated light is measured using an Envision plate reader, wherein the luminescent signal obtained positively correlates with the kinase activity. […]

compound	assay endpoint	reported result
COCCNC(=O)C1(c2ccn3c(-c4cc(OC)c(C(=O)NC5CC5)c(OC(F)F)c4)cnc3c2)CC1	IC50	> 500 nM
COc1cc(-c2cnc3cc(C4CCCN(C)C4)ccn23)cc(OC)c1C(=O)NCC(F)(F)F (centres unmarked)	IC50	100 to 500 nM
COc1cc(-c2cnc3cc(C(C)(C)O)ccn23)cc(OC(F)F)c1C(=O)NC1CC1	IC50	> 500 nM
COc1cc(-c2cnn3cc(C(C)(C)COCC4COC4)ccc23)cc(OC(F)F)c1C(=O)N[C@@H]1C[C@@H]1F	IC50	> 500 nM

Respectfully, I request IC50 for each entry included below.
1. COc1cc(-c2cnn3cc(C4(C#N)CCC4)ccc23)cc(OC(F)F)c1C(=O)N[C@@H]1C[C@@H]1F
2. COc1cc(-c2cnn3cc(C(C)(C)C#N)ccc23)cc(OC)c1C(=O)NC1CC1
3. COc1cc(-c2cnc3cc(C4CN(C(=O)OC(C)(C)C)C4)ccn23)cc(OC(F)F)c1C(=O)NC1CC1

Output:
100 to 500 nM
> 500 nM
10 to 100 nM

Input: Reported IC50 for COCC(C)(C#N)c1ccn2c(-c3cc(OC)c(C(=O)NC4CC4)c(OC(F)F)c3)cnc2c1 (centres unmarked) : what is it?
Output: > 500 nM

* * *

Target: SIK1 (Homo sapiens, UniProt P57059)
Construct: purchased Carna Biosciences 02-131
Sequence (P57059 whole entry): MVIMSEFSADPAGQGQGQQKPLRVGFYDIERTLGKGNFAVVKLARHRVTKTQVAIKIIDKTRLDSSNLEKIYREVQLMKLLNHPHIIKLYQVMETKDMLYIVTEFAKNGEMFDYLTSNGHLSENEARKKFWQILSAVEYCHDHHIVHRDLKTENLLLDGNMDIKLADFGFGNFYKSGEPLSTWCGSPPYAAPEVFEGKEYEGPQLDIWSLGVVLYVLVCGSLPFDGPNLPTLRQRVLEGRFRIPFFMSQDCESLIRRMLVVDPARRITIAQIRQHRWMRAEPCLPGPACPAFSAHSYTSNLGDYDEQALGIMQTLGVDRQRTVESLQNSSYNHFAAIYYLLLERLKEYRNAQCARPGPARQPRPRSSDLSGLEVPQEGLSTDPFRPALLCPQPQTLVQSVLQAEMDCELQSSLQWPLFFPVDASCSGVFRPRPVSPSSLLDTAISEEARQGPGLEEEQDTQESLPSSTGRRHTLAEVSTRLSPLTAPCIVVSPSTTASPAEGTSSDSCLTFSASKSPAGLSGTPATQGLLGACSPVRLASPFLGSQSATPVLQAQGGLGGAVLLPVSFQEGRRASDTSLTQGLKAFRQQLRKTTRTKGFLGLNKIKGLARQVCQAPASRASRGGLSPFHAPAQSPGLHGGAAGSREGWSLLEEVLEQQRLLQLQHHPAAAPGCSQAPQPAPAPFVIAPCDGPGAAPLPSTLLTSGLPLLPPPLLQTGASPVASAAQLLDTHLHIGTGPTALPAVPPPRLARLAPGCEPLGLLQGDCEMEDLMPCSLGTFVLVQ
Assay: ADP-Glo kinase assay, SIK1
Type: biochemical
Procedure: The ADP-Glo™ kinase assay is a luminescent technology assay which measures the ADP formed from a kinase reaction. […] In a second step the kinase reactions are terminated and all the remaining ATP is depleted. In a final step the ADP is converted into ATP and this newly synthesized ATP is measured by using a luciferase/luciferin reaction. The generated light is measured using an Envision plate reader, wherein the luminescent signal obtained positively correlates with the kinase activity. […]
assay endpoint: IC50

Look over these answered cases.
molecule	IC50
COc1cc(-n2cnc3cc(C(C)(C)C#N)ccc32)cc(OC)c1C(=O)NC1CC1 [Cpd 11]	> 500 nM
COc1cc(-c2cnc3cc(C4(CN5CCOCC5)CC4)ccn23)cc(OC(F)F)c1C(=O)NC1CC1 [Cpd 145]	> 500 nM
COc1cc(-c2cnc3cc(C(C)(C)OC)ncn23)cc(OC(F)F)c1C(=O)NC1CC1 [Cpd 118]	> 500 nM
COc1cc(-c2cnc3cc(C(C)(O)C(C)C)ccn23)cc(OC(F)F)c1C(=O)NC1CC1 (stereo not shown) [Cpd 135]	> 500 nM
COc1cc(-c2cnn3cc(C(C)(C)COS(C)(=O)=O)ccc23)cc(OC(F)F)c1C(=O)N[C@@H]1C[C@@H]1F [Cpd 267]	> 500 nM

Respectfully, I request IC50 for each entry included below.
1. COc1cc(-c2cnc3cc(C(C)N4CC5(COC5)C4)ccn23)cc(OC(F)F)c1C(=O)NC1CC1 (stereo not shown) [Cpd 152]
2. COc1cc(-c2cnc3cc(C(C)(O)CN4CCOCC4)ccn23)cc(OC(F)F)c1C(=O)NC1CC1 (stereo not shown) [Cpd 178]
3. COc1cc(-c2cnc3cc(C(C)(C)C#N)ccn23)cc(OC(F)F)c1C(=O)N1CCC(O)CC1 [Cpd 41]
4. COc1cc(-c2cnc3cc(C(C)(C)O)ccn23)cc(OC)c1C(=O)NCC(F)(F)F [Cpd 57]

Output:
1: > 500 nM; 2: > 500 nM; 3: > 500 nM; 4: > 500 nM

Respectfully, I request IC50 for each entry included below.
1. COc1cc(-c2cnc3cc(C(C)(C)C#N)ccn23)cnc1C(=O)NCC(F)(F)F [Cpd 127]
2. COc1cc(-c2cnc3cc(C(C)O)ccn23)cc(OC)c1C(=O)NCC(F)(F)F (stereo not shown) [Cpd 54]
3. COc1cc(-c2cnc3cc(C4CCCN4C(C)C)ccn23)cc(OC(F)F)c1C(=O)NC1CC1 (stereo not shown) [Cpd 197]
4. COc1cc(-c2cnc3cc(C4(C#N)CCOC4)ccn23)cc(OC(F)F)c1C(=O)NC1CC1 (stereo not shown) [Cpd 123]

Output:
["> 500 nM", "> 500 nM", "100 to 500 nM", "> 500 nM"]

Respectfully, I request IC50 for each entry included below.
1. COc1cc(-c2cnc3cc(C4CCCN4C(=O)OC(C)(C)C)ccn23)cc(OC(F)F)c1C(=O)NC1CC1 (stereo not shown) [Cpd 180]
2. COc1cc(-c2cnn3cc(C4COCCO4)ccc23)cc(OC(F)F)c1C(=O)NC1CC1 (stereo not shown) [Cpd 232]
3. COc1cc(-c2cnc3cc(C4CCOCC4)ccn23)cc(OC(F)F)c1C(=O)NC1CC1 [Cpd 108]

Output:
100 to 500 nM
> 500 nM
100 to 500 nM
